measurement-target: Keap1/Nrf2 (Homo sapiens)
measurement-protocol: Inhibition of recombinant human KEAP1 Kelch domain (321 to 609 residues) expressed in Escherichia coli BL21 (DE3)pLysS cells interaction with FITC-9mer Nrf2 (unknown origin) incubated for 30 mins under shaking condition by fluorescence polarization assay
endpoint-name: IC50 (nM)

# molecule-smiles, IC50 [nM]
records = [
    ("O=C(O)CN(c1ccc(N(CC(=O)O)S(=O)(=O)c2ccc3c(c2)CCCO3)c2ccccc12)S(=O)(=O)c1ccc2c(c1)CCCO2", 146),
    ("O=C(O)CN(c1ccc(N(CC(=O)O)S(=O)(=O)c2ccc(N3C(=O)c4ccccc4C3=O)cc2)c2ccccc12)S(=O)(=O)c1ccc(N2C(=O)c3ccccc3C2=O)cc1", 82),
    ("O=C(O)CN(c1ccc(N(CC(=O)O)S(=O)(=O)c2ccc(Br)cc2)c2ccccc12)S(=O)(=O)c1ccc(Br)cc1", 235),
    ("O=C(O)CN(c1ccc(N(CC(=O)O)S(=O)(=O)c2cc3c(cc2Cl)OCCO3)c2ccccc12)S(=O)(=O)c1cc2c(cc1Cl)OCCO2", 144),
]

P: O=C(O)CN(c1ccc(N(CC(=O)O)S(=O)(=O)c2ccc3c(c2)OCCO3)c2ccccc12)S(=O)(=O)c1ccc2c(c1)OCCO2
Q: COc1ccc(S(=O)(=O)N(CC(=O)O)c2ccc(N(CC(=O)O)S(=O)(=O)c3ccc(OC)cc3Br)c3ccccc23)c(Br)c1
R: O=S(=O)(c1ccc(C(F)(F)F)cc1)N(Cc1nnn[nH]1)c1ccc(N(Cc2nnn[nH]2)S(=O)(=O)c2ccc(C(F)(F)F)cc2)c2ccccc12
// ranking: key=IC50, reverse=True Output the labels ranked as instructed. R, Q, P

----------
measurement-target: Keap1/Nrf2 (Homo sapiens, UniProt Q14145)
Sequence (Q16236 whole entry, the tested form may be a part): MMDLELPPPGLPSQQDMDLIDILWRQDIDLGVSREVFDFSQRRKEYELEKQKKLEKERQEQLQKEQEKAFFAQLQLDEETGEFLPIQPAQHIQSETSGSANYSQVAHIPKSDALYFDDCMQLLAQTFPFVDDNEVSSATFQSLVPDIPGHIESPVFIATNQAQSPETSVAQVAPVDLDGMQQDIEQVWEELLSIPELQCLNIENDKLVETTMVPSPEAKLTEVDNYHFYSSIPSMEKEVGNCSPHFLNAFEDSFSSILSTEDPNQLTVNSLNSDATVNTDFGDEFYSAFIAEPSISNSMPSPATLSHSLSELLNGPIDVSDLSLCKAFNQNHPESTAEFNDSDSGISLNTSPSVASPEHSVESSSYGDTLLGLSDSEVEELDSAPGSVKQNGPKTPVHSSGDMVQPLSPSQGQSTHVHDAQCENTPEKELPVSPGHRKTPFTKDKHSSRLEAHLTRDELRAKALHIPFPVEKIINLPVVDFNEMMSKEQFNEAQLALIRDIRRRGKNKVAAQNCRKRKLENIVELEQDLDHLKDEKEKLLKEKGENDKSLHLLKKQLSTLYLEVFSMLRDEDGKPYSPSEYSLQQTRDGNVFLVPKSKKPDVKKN
Sequence (Q14145 whole entry, the tested form may be a part): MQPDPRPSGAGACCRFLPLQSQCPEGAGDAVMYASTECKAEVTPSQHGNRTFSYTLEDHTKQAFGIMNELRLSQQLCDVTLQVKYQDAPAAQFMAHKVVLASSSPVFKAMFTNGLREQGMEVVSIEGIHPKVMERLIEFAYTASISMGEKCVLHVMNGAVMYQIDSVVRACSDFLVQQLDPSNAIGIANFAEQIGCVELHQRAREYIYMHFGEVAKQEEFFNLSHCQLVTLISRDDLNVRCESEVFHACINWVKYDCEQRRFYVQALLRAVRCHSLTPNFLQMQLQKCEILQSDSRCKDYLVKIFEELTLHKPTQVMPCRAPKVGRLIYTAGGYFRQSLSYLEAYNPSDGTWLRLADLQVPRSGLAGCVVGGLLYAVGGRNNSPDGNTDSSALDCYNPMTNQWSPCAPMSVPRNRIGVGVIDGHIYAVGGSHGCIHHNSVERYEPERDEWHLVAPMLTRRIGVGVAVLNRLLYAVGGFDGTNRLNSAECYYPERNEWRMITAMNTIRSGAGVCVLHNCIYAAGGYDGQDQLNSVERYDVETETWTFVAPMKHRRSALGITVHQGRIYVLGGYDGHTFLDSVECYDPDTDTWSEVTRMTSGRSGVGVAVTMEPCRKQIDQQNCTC
measurement-protocol: Inhibition of recombinant human KEAP1 Kelch domain (321 to 609 residues) expressed in Escherichia coli BL21 (DE3)pLysS cells interaction with FITC-9mer Nrf2 (unknown origin) incubated for 30 mins under shaking condition by fluorescence polarization assay
pIC50: −log10 of the molar value.
endpoint-name: pIC50

Observe how each entry below is paired with its result.
# molecule-smiles, endpoint-name, value-measured
records = [
    ("O=S(=O)(c1ccc2c(c1)OCCO2)N(Cc1nnn[nH]1)c1ccc(N(Cc2nnn[nH]2)S(=O)(=O)c2ccc3c(c2)OCCO3)c2ccccc12", "pIC50", 7.03),
    ("O=C(O)CN(c1ccc(N(CC(=O)O)S(=O)(=O)c2ccc3c(c2)OCO3)c2ccccc12)S(=O)(=O)c1ccc2c(c1)OCO2", "pIC50", 6.83),
]

P: COc1ccc(S(=O)(=O)N(Cc2nnn[nH]2)c2ccc(N(Cc3nnn[nH]3)S(=O)(=O)c3ccc(OC)cc3)c3ccccc23)cc1
Q: CS(=O)(=O)Nc1ccc(S(=O)(=O)N(CC(=O)O)c2ccc(N(CC(=O)O)S(=O)(=O)c3ccc(NS(C)(=O)=O)cc3)c3ccccc23)cc1
From the items above, decide which of P and Q has the lower pIC50 reading. Pick one; state its label. Q
(Q: 6.71, P: 7.01)

----------
measurement-target: Keap1/Nrf2 (Homo sapiens)
measurement-protocol: Inhibition of recombinant human KEAP1 Kelch domain (321 to 609 residues) expressed in Escherichia coli BL21 (DE3)pLysS cells interaction with FITC-9mer Nrf2 (unknown origin) incubated for 30 mins under shaking condition by TR-FRET assay
pIC50: −log10 of the molar value.
endpoint-name: pIC50

# molecule-smiles, pIC50
measured = [
    ("O=C(O)CN(c1ccc(N(CC(=O)O)S(=O)(=O)c2cc3c(cc2Cl)OCCO3)c2ccccc12)S(=O)(=O)c1cc2c(cc1Cl)OCCO2", 8.05),
]

1: COc1ccc(S(=O)(=O)N(Cc2nnn[nH]2)c2ccc(N(Cc3nnn[nH]3)S(=O)(=O)c3ccc(OC)cc3)c3ccccc23)cc1
2: O=C(O)CN(c1ccc(N(CC(=O)O)S(=O)(=O)c2ccc3c(c2)OCCO3)c2ccccc12)S(=O)(=O)c1ccc2c(c1)OCCO2
Pick one: 1 or 2 . Which has the bigger pIC50 number? Pick one and reply with its label. 1

P: O=S(=O)(c1ccc2c(c1)OCCO2)N(Cc1nnn[nH]1)c1ccc(N(Cc2nnn[nH]2)S(=O)(=O)c2ccc3c(c2)OCCO3)c2ccccc12
Q: O=C(O)CN(c1ccc(N(CC(=O)O)S(=O)(=O)c2ccc(N3C(=O)c4ccccc4C3=O)cc2)c2ccccc12)S(=O)(=O)c1ccc(N2C(=O)c3ccccc3C2=O)cc1
Could you tell me which of these two has the smaller pIC50 figure? First: P Second: Q Which one? Tell me its label. Q
(Q: 7.94, P: 8.14)

----------
measurement-target: Keap1/Nrf2 (Homo sapiens)
measurement-protocol: Inhibition of recombinant human KEAP1 Kelch domain (321 to 609 residues) expressed in Escherichia coli BL21 (DE3)pLysS cells interaction with FITC-9mer Nrf2 (unknown origin) incubated for 30 mins under shaking condition by fluorescence polarization assay
pIC50: −log10 of the molar value.
endpoint-name: pIC50

# molecule-smiles, value-measured
measured = [
    ("O=C(O)CN(c1ccc(N(CC(=O)O)S(=O)(=O)c2ccc(NC(=O)C(F)(F)F)cc2)c2ccccc12)S(=O)(=O)c1ccc(NC(=O)C(F)(F)F)cc1", 6.90),
]

P: O=C(O)CN(c1ccc(N(CC(=O)O)S(=O)(=O)c2ccc3c(c2)CCO3)c2ccccc12)S(=O)(=O)c1ccc2c(c1)CCO2
Q: O=C(O)CN(c1ccc(N(CC(=O)O)S(=O)(=O)c2ccc(C(F)(F)F)cc2)c2ccccc12)S(=O)(=O)c1ccc(C(F)(F)F)cc1
Hi team, can someone confirm which has the larger pIC50: P or Q ? Thanks. Identify your selection by its label. P

----------
Tested on: BV-2
measurement-protocol: Cytotoxicity against mouse BV-2 cells up to 50 uM by Alamar blue assay
Format: cell-based
endpoint-name: Activity

Below, 5 molecules whose answers are already recorded.
# molecule-smiles, Activity
data = [
    ("O=S(=O)(c1ccc2c(c1)OCCO2)N(Cc1nnn[nH]1)c1ccc(N(Cc2nnn[nH]2)S(=O)(=O)c2ccc3c(c2)OCCO3)c2ccccc12", "Non-Toxic"),
    ("O=C(O)CN(c1ccc(N(CC(=O)O)S(=O)(=O)c2ccc3c(c2)OCCO3)c2ccccc12)S(=O)(=O)c1ccc2c(c1)OCCO2", "Non-Toxic"),
    ("O=C(O)CN(c1ccc(N(CC(=O)O)S(=O)(=O)c2cc3c(cc2Cl)OCCO3)c2ccccc12)S(=O)(=O)c1cc2c(cc1Cl)OCCO2", "Non-Toxic"),
    ("O=C(O)CN(c1ccc(N(CC(=O)O)S(=O)(=O)c2ccc3c(c2)CCO3)c2ccccc12)S(=O)(=O)c1ccc2c(c1)CCO2", "Non-Toxic"),
    ("O=C(O)CN(c1ccc(N(CC(=O)O)S(=O)(=O)c2ccc3c(c2)CCCO3)c2ccccc12)S(=O)(=O)c1ccc2c(c1)CCCO2", "Non-Toxic"),
]

Now for a further molecule.
Given the molecule O=C(O)CN(c1ccc(N(CC(=O)O)S(=O)(=O)c2ccc3c(c2)OCO3)c2ccccc12)S(=O)(=O)c1ccc2c(c1)OCO2 , what is its reported Activity? Non-Toxic
